- ASSAYED SYSTEM: NGF (nerve growth factor) (Homo sapiens, UniProt P01138 P01138:122-241)
- Sequence (P01138 122-241, one chain of several): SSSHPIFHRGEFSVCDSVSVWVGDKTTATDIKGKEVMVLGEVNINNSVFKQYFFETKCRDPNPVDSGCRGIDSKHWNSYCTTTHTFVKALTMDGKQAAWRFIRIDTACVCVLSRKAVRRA
- ASSAY SUMMARY: cell_activity; neurite outgrowth inhibition; TF-1 IC50 6.924 nM
- DETAILS: tags: R&D Systems; chain copies: 2
RESULT TYPE: IC50 (nM)
One number for each entry, in nM.

Recorded IC50 of GGGUCCUGGUGAUAAGUUUCCGUCUUAUCACCUGUUACCC (ssRNA, 2'-F C and U; 2'-OH G; 2'-H (deoxy) A) [SEQ ID NO: 81] , please.
0.765
